- Experiment summary: Half life in human microsomes
- Type: ADME, Microsome
Attribute: half-life
The reply should contain only the number, in min.

Chem smiles	Unit abbrev	Endpoint value
O=C(Nc1ccncc1)Nc1ccc(-c2nc(N3CC4CCC(C3)O4)c3cnn(C4CCC5(CC4)OCCO5)c3n2)cc1	min	13
O=C(Nc1ccc(-c2nc(N3CC4CCC(C3)O4)c3cnn(C4CCC5(CC4)OCCO5)c3n2)cc1)NC1CC1	min	9
CCNC(=O)Nc1ccc(-c2nc(N3CC4CCC(C3)O4)c3cnn(C4CCC5(CC4)OCCO5)c3n2)cc1	min	10
CNC(=O)Nc1ccc(-c2nc(N3CC4CCC(C3)O4)c3cnn(CC(F)(F)F)c3n2)cc1	min	5

Could you please provide reported half-life for CNC(=O)Nc1ccc(-c2nc(N3CC4CCC(C3)O4)c3cnn(C4CCC(=O)CC4)c3n2)cc1 ? Thanks!
10

Could you please provide reported half-life for CNC(=O)Nc1ccc(-c2nc(N3CC4CCC(C3)O4)c3cnn(C4CCC(OC)(OC)CC4)c3n2)cc1 ? Thanks!
30

###

- Experiment summary: Half life in nude mouse microsomes
- Format: ADME, Microsome
Property label: half-life

Could you please provide reported half-life for CNC(=O)Nc1ccc(-c2nc(N3CC4CCC(C3)O4)c3cnn(C4CCC5(CC4)OCCCO5)c3n2)cc1 ? Thanks!
> 30 min

Could you please provide reported half-life for O=C(NCCF)Nc1ccc(-c2nc(N3CC4CCC(C3)O4)c3cnn(C4CCC5(CC4)OCCO5)c3n2)cc1 ? Thanks!
> 30 min

###

- Experiment summary: Half life in nude mouse microsomes
- Format: ADME, Microsome
Attribute: half-life
The reply should contain only the number, in min.

Chem smiles	Unit abbrev	half-life
CNC(=O)Nc1ccc(-c2nc(N3CC4CCC(C3)O4)c3cnn([C@H]4CC[C@@H](OC)CC4)c3n2)cc1	min	17

Could you please provide reported half-life for CNC(=O)Nc1ccc(-c2nc(N3CC4CCC(C3)O4)c3cnn(C4CCN(C(=O)OC(C)(C)C)CC4)c3n2)cc1 ? Thanks!
11

Could you please provide reported half-life for CCNC(=O)Nc1ccc(-c2nc(N3CC4CCC(C3)O4)c3cnn(C4CCC5(CC4)OCCO5)c3n2)cc1 ? Thanks!
27

###

Attribute: half-life
- Experiment summary: Half life in human microsomes
- Assay type: ADME, Microsome
The reply should contain only the number, in min.

Chem smiles	Unit abbrev	Endpoint value
CNC(=O)Nc1ccc(-c2nc(N3CC4CCC(C3)O4)c3cnn([C@H]4CC[C@H](OC)CC4)c3n2)cc1	min	15

Let us move to another entry and its half-life.
Could you please provide reported half-life for O=C(Nc1ccc(-c2nc(N3CC4CCC(C3)O4)c3cnn(C4CCC5(CC4)OCCO5)c3n2)cc1)Nc1cccnc1 ? Thanks!
13

###

- Experiment summary: Half life in nude mouse microsomes
- Assay type: ADME, Microsome
Attribute: half-life

Chem smiles	half-life
O=C(Nc1ccncc1)Nc1ccc(-c2nc(N3CC4CCC(C3)O4)c3cnn(C4CCC5(CC4)OCCO5)c3n2)cc1	> 30 min
CNC(=O)Nc1ccc(-c2nc(N3CC4CCC(C3)O4)c3cnn(C)c3n2)cc1	> 30 min
CCn1ncc2c(N3CC4CCC(C3)O4)nc(-c3ccc(NC(=O)NC)cc3)nc21	> 30 min
CNC(=O)Nc1ccc(-c2nc(N3CC4CCC(C3)O4)c3cnn([C@H]4CC[C@H](O)CC4)c3n2)cc1	> 30 min

Could you please provide reported half-life for CNC(=O)Nc1ccc(-c2nc(N3CC4CCC(C3)O4)c3cnn(C4CCC(OC)(OC)CC4)c3n2)cc1 ? Thanks!
15 min

Could you please provide reported half-life for CNC(=O)Nc1ccc(-c2nc(N3CC4CCC(C3)O4)c3cnn(CCN(C)C)c3n2)cc1 ? Thanks!
5 min

Could you please provide reported half-life for O=C(Nc1ccc(-c2nc(N3CC4CCC(C3)O4)c3cnn(C4CCC5(CC4)OCCO5)c3n2)cc1)Nc1cccnc1 ? Thanks!
> 30 min

Could you please provide reported half-life for CNC(=O)Nc1ccc(-c2nc(N3CC4CCC(C3)O4)c3cnn(CC(F)(F)F)c3n2)cc1 ? Thanks!
> 30 min

Cited source: ChEMBL document CHEMBL1156873
